- Test system: symmetrical dimethylation of arginine (Di-Methyl Histone H4 Arginine 3) in cell line TE11
- TEST DESCRIPTION: Revised PRMT5 Biomarker Assay
- SETTINGS: Homo sapiens, TE-11; TE11 cells, 72 hours incubation, immunofluorescence, corrected for cell number (Hoechst 33342), plate reader based
READOUT: IC50 (µM)
Provide only the numeric value, understood in µM.

Use these answered entries as a reference point.
> print(dat)
                                smiles.repr                             target.system  readout  endpoint.result
1  CC[C@H]1COCCN1C(=O)c1ccc(C(=O)NC[C@@H](O)CNC2Cc3ccccc3C2)cc1  symmetrical dimethylation of arginine (Di-Methyl Histone H4 Arginine 3) in cell line TE11     IC50            0.015
2  CCOc1cc(C(=O)N2CCCC2)ccc1C(=O)NC[C@@H](O)CNC1Cc2ccccc2C1  symmetrical dimethylation of arginine (Di-Methyl Histone H4 Arginine 3) in cell line TE11     IC50            0.008

Query compound follows.
Reported IC50, compound CC(=O)N1CCC(Nc2cc(C(=O)NC[C@H](O)CNC3Cc4ccccc4C3)ccn2)CC1 : ____
0.122

----------
- TARGET SYSTEM: Full-length PRMT5 enzyme co-expressed with MEP50 (Homo sapiens (Human))
- TEST DESCRIPTION: Revised PRMT5 Biochemical Assay
- SETTINGS: 1 μM histone H4 derived peptide substrate, 1 μM S-Adenosyl methionine, 4 hours at 37 degree Celsius, Transcreener EPIGEN fluorescence polarisation
Let's look at some molecules and their measured pIC50.
Convention used: pIC50 is expressed as -log10 of the molar concentration.

Use these answered entries as a reference point.
> print(dat)
                                   molecule                             target.system  readout  endpoint.result
1  O=C(NCC(O)CNC1Cc2ccccc2C1)c1ccnc(NC2CCCC2)c1 (stereo not shown)  Full-length PRMT5 enzyme co-expressed with MEP50 (Homo sapiens (Human))    pIC50             6.43
2  CC(=O)N1CCC(Nc2cccc(C(=O)NCC(O)CNC3Cc4ccccc4C3)n2)CC1 (stereo not shown)  Full-length PRMT5 enzyme co-expressed with MEP50 (Homo sapiens (Human))    pIC50             5.60
3  O=C(NC[C@@H](O)CNC1Cc2ccccc2C1)c1ccc(C(=O)N2CCS(=O)(=O)CC2)cc1  Full-length PRMT5 enzyme co-expressed with MEP50 (Homo sapiens (Human))    pIC50             5.89

Query molecule follows.
Reported pIC50, molecule CC(=O)N1CCN(C(=O)Cc2ccc(C(=O)NCC(O)CNC3Cc4ccccc4C3)cc2)CC1 (racemic) : ____
5.46

----------
Let's look at some compounds and their measured log10 IC50.
- TARGET SYSTEM: Full-length PRMT5 enzyme co-expressed with MEP50 (Homo sapiens (Human), UniProt O14744)
- Sequence (O14744 whole entry): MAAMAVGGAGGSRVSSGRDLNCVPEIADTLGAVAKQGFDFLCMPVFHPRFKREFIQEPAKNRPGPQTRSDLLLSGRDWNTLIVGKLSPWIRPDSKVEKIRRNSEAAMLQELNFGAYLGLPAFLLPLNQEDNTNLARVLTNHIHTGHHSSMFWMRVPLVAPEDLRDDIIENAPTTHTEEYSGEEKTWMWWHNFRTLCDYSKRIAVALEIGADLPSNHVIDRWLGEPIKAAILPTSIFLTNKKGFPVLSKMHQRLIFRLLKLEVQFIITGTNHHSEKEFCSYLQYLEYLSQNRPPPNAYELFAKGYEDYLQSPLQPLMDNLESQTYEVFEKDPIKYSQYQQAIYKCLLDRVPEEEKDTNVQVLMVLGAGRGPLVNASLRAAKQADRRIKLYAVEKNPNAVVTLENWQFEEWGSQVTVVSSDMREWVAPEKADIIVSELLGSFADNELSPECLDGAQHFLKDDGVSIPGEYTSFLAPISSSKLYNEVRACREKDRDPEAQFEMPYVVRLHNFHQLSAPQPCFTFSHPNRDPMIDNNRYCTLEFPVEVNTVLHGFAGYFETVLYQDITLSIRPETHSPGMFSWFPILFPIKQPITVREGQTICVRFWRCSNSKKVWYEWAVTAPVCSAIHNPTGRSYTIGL
- Sequence (Q9BQA1 whole entry partner): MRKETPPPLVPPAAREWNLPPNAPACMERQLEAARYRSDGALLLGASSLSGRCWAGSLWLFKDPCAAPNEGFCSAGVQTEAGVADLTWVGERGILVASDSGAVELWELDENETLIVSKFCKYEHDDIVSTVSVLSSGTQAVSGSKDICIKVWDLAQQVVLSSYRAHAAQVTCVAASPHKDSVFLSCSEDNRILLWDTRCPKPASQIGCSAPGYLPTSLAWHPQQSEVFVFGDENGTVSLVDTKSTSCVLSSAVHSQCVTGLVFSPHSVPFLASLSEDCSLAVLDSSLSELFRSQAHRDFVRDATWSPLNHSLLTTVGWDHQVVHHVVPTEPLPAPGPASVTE
- TEST DESCRIPTION: Revised PRMT5 Biochemical Assay
- SETTINGS: 1 μM histone H4 derived peptide substrate, 1 μM S-Adenosyl methionine, 4 hours at 37 degree Celsius, Transcreener EPIGEN fluorescence polarisation
- Protocol: Compounds of the invention may be tested for in vitro activity in the following assay: A histone H4 derived peptide is used as substrate (amino acid sequence: […]NH2). […] The 6 μL reactions are run in Greiner brand black 384-well low volume assay plates. […] To each reaction 2 μL detection mix were added, containing coupling enzymes, fluorescence polarisation tracer, and AMP antibody. […]
Use the decimal logarithm of IC50 (µM).

> print(dat)
                                   compound     readout  endpoint.result
1  O=C(NC[C@@H](O)CNC1Cc2ccccc2C1)c1ccc(CC(=O)N2CCCCC2)nc1  log10 IC50             0.75
2  CC(=O)N1CCC(Nc2cncc(C(=O)NCC(O)CNC3Cc4ccccc4C3)n2)CC1 (centres unmarked)  log10 IC50             1.87

API: value(readout= log10 IC50, system= Full-length PRMT5 enzyme co-expressed with MEP50 (Homo sapiens (Human), UniProt O14744), query= CS(=O)(=O)N1CC(Nc2cc(C(=O)NC[C@@H](O)CNC3Cc4ccccc4C3)ccn2)C1 )
1.05

API: value(readout= log10 IC50, system= Full-length PRMT5 enzyme co-expressed with MEP50 (Homo sapiens (Human), UniProt O14744), query= O=C(NC[C@H](O)CNC1Cc2ccccc2C1)c1ccc(CC(=O)N2CCCC2)cc1 )
0.09

API: value(readout= log10 IC50, system= Full-length PRMT5 enzyme co-expressed with MEP50 (Homo sapiens (Human), UniProt O14744), query= O=C(NC[C@@H](O)CNC1Cc2ccccc2C1)c1ccc(C(=O)N2CCOCC23CCC3)cc1 )
-0.29
